- Test system: SF-539 CNS
- TEST DETAILS: NCI tumour cell line growth inhibition, 48 h; in the data active means GI50 below about 0.43 µM; inactive means the rest
Classes used: 1 = active, 0 = inactive

* COc1cc2ncnc(-n3ncc4cc(NC(=O)Nc5ccccc5)ccc43)c2cc1OC | 1
* NS(=O)(=O)c1ccc(-c2ccc3c(NC(=O)C4CC4)n[nH]c3c2)cc1 | 0
* C=CCCCCC/C=C\[C@@H](O)C#CC#C/C=C/CO | 0
* C=C1C(=O)O[C@H]2[C@H]1CC/C(COC(=O)NCCCCNC(=O)OC/C1=C/CC[C@@]3(C)O[C@H]3[C@H]3OC(=O)C(=C)[C@@H]3CC1)=C\CC[C@@]1(C)O[C@@H]21 | 0

Source listed as PubChem BioAssay (NCI).
